Test system: DU-145 prostate
assay.summary: NCI-60 one-dose screen, 48 h (100 = growth as untreated, 0 = no growth, -100 = all killed)
run.conditions: 10 µM unless noted
Compounds without any hit were thinned out: in the full panel of roughly 83,000, 20% have a hit.
Exercise: state measured growth for each of the compounds provided.
One number for each entry, in %.

Past entries and their recorded results:
# get_value(readout='growth', item= O=C(CSc1nnc(-c2cccs2)n1-c1ccccc1)Nc1ccccc1F )
102

Likewise for CCOC(=O)c1cccnc1Nc1ccc(NC(=O)Nc2ccc(Cl)c(C(F)(F)F)c2)cc1 ?
32.6

Next record, please: Nc1ccc(Nc2ncnc3sc4c(c23)CCN(Cc2ccccc2)C4)cc1
106

Now try O=C1CSC(c2cn(-c3ccccc3)nc2-c2ccc(Cl)cc2)N1c1ccccc1 (stereo not given) .
115

Follow-up item: CN(C)c1cccc2c(S(=O)(=O)Nc3cccc(-c4csc(NC(=O)CCCCCN5CCN(CCO)CC5)n4)c3)cccc12
90.6

Let us now turn to O=S(=O)(Oc1ccc(-c2cn3ccoc3n2)cc1)C1CCCCC1
107

Do the same for CCN(CC)c1ccc(/C=N/NC(=O)c2ccc(S(N)(=O)=O)cc2)cc1 please
34.7

Request: CCNC(=O)Oc1ccc(/C(=C(/C)c2ccc(OC)cc2)c2ccc(OCCN3CCCCCC3)cc2)cc1
76

Repeat for the following compound: O=C(/C=C/C=C/c1csc(Br)n1)NO
94.3

Attention now shifts to the item below.
Could you tell me which growth is on file for Cc1ccc2c(n1)C(=O)C(Cl)=C(Nc1ccc(C(C)C)cc1)C2=O ?
16.2

----------
System: SK-MEL-2 melanoma
assay.summary: NCI-60 one-dose screen, 48 h (100 = growth as untreated, 0 = no growth, -100 = all killed)
run.conditions: 10 µM unless noted
This is part of a sample that, as a whole, favours compounds with a hit. Of some 83,000 tested, about 20% had one in any assay.
Mark Fulfilled only for growth values smaller than 60%; exact matches and larger values are Not fulfilled.

For orientation, consider the following solved cases.
Field: below-cutoff. Rule: recorded growth strictly less than 60%. Subject: CCOC(=O)c1c(N)c(C#N)cn1Cc1ccc(Cl)cc1Cl
Not fulfilled

And NS(=O)(=O)c1ccc(Nc2nc(N/N=C/c3ccc4c(c3)OCO4)nc(Nc3ccccc3)n2)cc1 ?
Fulfilled

Now the same for COc1cccc2c1C=CC1(O2)Oc2cccc(OC)c2C=C1C (stereo not given)
Fulfilled

Next: CCN(CC)S(=O)(=O)c1ccc(-c2nc(C(Cl)Cl)nc3cc(C)nn23)cc1
Not fulfilled

Here is the next item to consider.
Find out if reported growth for O=c1c2cc(-c3ccc(F)cc3F)ccc2n(O)c(=O)n1-c1cccc(C(F)(F)F)c1 is less than 60%
Fulfilled

----------
Kindly supply the reported growth values for the records listed here.
System: NCI/ADR-RES ovarian
assay.summary: NCI-60 one-dose screen, 48 h (100 = growth as untreated, 0 = no growth, -100 = all killed)
run.conditions: 10 µM unless noted
Protocol: Growth inhibition of the NCI/ADR-RES human […] tumor cell line is measured as a screen for anti-cancer activity. Cells are grown in 96 well plates and exposed to the test compound for 48 hours. Compounds are tested at a single concentration, which is 10^-5 M for most compounds. The reported endpoint is percent growth (GI% or GIPRCNT), where numbers from 0 - 100% represent growth inhibition, and numbers from -100% - 0 represent cell death. For example, a value of 40 represents 60% growth inhibition. […]
Compounds without any hit were thinned out: in the full panel of roughly 83,000, 20% have a hit.
Numbers only, in %.

Which growth reading was recorded for the compound CN(C)c1cccc2c(S(=O)(=O)Nc3cccc(-c4csc(NC(=O)CCCCCN5CCN(CCO)CC5)n4)c3)cccc12 ?
103

Parameters: items (list). Returns: growth for each item.
1. CC(=O)OC[C@@]12Oc3c(cccc3-c3ccc(O)c4c3O[C@]3(COC(C)=O)C(=C4O)C(=O)C[C@H](C)[C@@H]3OC(C)=O)C(O)=C1C(=O)C[C@H](C)[C@@H]2OC(C)=O
2. COC(=O)CNC(=O)c1cccc(-c2cc(=O)c3c(OC)c(OC)c(OC)cc3o2)c1

1. 24.7
2. 99.5

----------
Test system: LOX IMVI melanoma
assay.summary: NCI-60 one-dose screen, 48 h
run.conditions: 10 µM unless noted
The panel holds about 83,000 compounds, 20% with a hit somewhere; the sample as a whole holds those more often. Active and inactive are the calls of the source. How the source made its calls: active means growth percent below 10; inactive means the rest.
Give one outcome, nothing more. List: active, inactive

Please indicate how the test categorized CCCCN1C(=O)/C(=c2\sc3n(c2=O)C2C(NN=3)N(CC)C(=O)N2CC)c2cc(C)ccc21 (centres undefined) .
inactive

Now give it for NCCNC(=O)c1cccc(COc2ccccc2NC(=O)c2cc(Cl)c(Cl)[nH]2)c1 too.
inactive

Could you do the same for COc1ccccc1Cn1cc(C#N)c(N)c1C(=O)c1ccc(Br)cc1 , please?
inactive

Another compound to check: Fc1ccc2nc(-c3cnn4cccnc34)sc2c1
inactive

Record: CC(=C(c1ccc(OCCN2CCCC2)cc1)c1ccc(OCCN2CCCC2)cc1)c1ccc(Cl)cc1
active

More entries:
Fill in: this test's call for N#C/C(=C\c1cccc2c1OCO2)C(=O)Nc1sc2c(c1C#N)CCCC2 is ___
inactive

Try Cc1ccc(S(=O)(=O)NCCCNc2nc(Nc3ccc(N4CCN(C)CC4)cc3)nc3ccsc23)cc1 next.
active

Can you check N#Cc1cnc2ccc(-c3cnc4n[nH]nc4c3)cc2c1N1CCc2cc(F)c(Cl)cc21 next?
inactive

Ok, now Cc1ccc(C(=O)Nc2ccc(CNCCN3CCNCC3)c(C(F)(F)F)c2)cc1C#Cc1cnc2cccnn12
active

----------
Exercise: state measured growth for each of the compounds provided.
Test system: DU-145 prostate
assay.summary: NCI-60 one-dose screen, 48 h (100 = growth as untreated, 0 = no growth, -100 = all killed)
run.conditions: 10 µM unless noted
The panel holds about 83,000 compounds, 20% with a hit somewhere; the sample as a whole holds those more often.
One number for each entry, in %.

Below, 3 compounds whose answers are already recorded.
I'd like to know its growth. The compound in question is CCN1CCN(c2ccc(NC(=O)Nc3ccc4c(ccn4-c4ccnc(C(=O)NC)c4)c3)cc2C(F)(F)F)CC1
86

And O=C(CSc1nc2ccccc2c(=O)n1-c1ccccc1)N/N=C/c1ccc(Oc2ccc(Cl)cc2)cc1 ?
38.4

Same for O=C1[C@@H]2Cc3c([nH]c4ccccc34)[C@H](c3ccc(Br)cc3)N2C(=O)CN1C1CCN(Cc2c(Cl)cccc2Cl)CC1
96.3

As a next step, examine the compound that follows.
growth for COc1cc2oc(-c3cccc(NC(=O)c4cccc([N+](=O)[O-])c4)c3)cc(=O)c2c(OC)c1OC ?
66.9

----------
System: HS 578T breast
assay.summary: NCI-60 one-dose screen, 48 h
run.conditions: 10 µM unless noted
Experimental: Growth inhibition of the HS 578T human tumor cell line is measured as a screen for anti-cancer activity. Cells are grown in 96 well plates and exposed to the test compound for 48 hours. Compounds are tested at a single concentration, which is 10^-5 M for most compounds. The reported endpoint is percent growth (GI% or GIPRCNT), where numbers from 0 - 100% represent growth inhibition, and numbers from -100% - 0 represent cell death. For example, a value of 40 represents 60% growth inhibition. […]
The panel holds about 83,000 compounds, 20% with a hit somewhere; the sample as a whole holds those more often. Active and inactive are the calls of the source. The calls were made as follows: active = growth percent below 10; inactive = the rest.
Use one of these outcomes when replying: T (active), F (inactive)

Example entries and their recorded answers appear below.
Field: outcome | Entry: Cc1ccc(S(=O)(=O)NCCCNc2nccc(-c3[nH]c(-c4ccccc4)nc3-c3ccc(F)c(O)c3)n2)cc1
F

Next up: OCC(Nc1ncnc2ccc(-c3cnc4cnccn34)cc12)c1ccccc1 (centres undefined)
F

Item: CN1CCN(Cc2ccc(NC(=O)c3cncc(C#Cc4cnc5ccc(NCCO)nn45)c3)cc2C(F)(F)F)CC1
T

Subsequent entry: Cn1cc(-c2nnc(N)nc2-c2c[nH]c3ccc(F)cc23)c2cc(Br)ccc21
T

Again, but for COC(=O)CCSC1=C(C)C(=O)c2ccccc2C1=O
F

Next:
Dear colleague, could you share the recorded outcome for CC(=O)c1c([Si](C)(C)C)c2cc(C#N)ccn2c1C(=O)c1ccc(Br)cc1 when you have a moment?
F

Lookup O=C(/C=C/c1ccc(F)cc1)Nc1cccc2cccnc12
F

What about this compound? O=C(Nc1ccccc1)Nc1nc2ccc([N+](=O)[O-])cc2[nH]1
F

----------
Field: growth. Provide a value for each of the compounds that follow.
System: SW-620 colon
assay.summary: NCI-60 one-dose screen, 48 h (100 = growth as untreated, 0 = no growth, -100 = all killed)
run.conditions: 10 µM unless noted
This is part of a sample that, as a whole, favours compounds with a hit. Of some 83,000 tested, about 20% had one in any assay.
Give bare numbers, in %.

Use these answered entries as a reference point.
If you can, please state the reported growth value of N/C(=N\C(N)=N\c1nc2ccccc2s1)c1ccc(Cl)cc1 .
103

CCOc1cccc(/C(N)=N/C(N)=N/c2nc3ccccc3s2)c1 ?
102

Note, next up: COc1ccc2[nH]cc(-c3nn4cc(-c5ccncc5)nc4s3)c2c1
66.3

Entry to check: N#Cc1cccc(-c2cc(-c3ccc4c(c3)OCCO4)[nH]n2)c1
27.5

Also need COc1ccc(/C=N/NC(=O)c2c(N)nn(C)c2Nc2ccccc2)cc1Oc1ccccc1 , thanks.
100

Same question for NC1CC2(CCN(c3cnc(C(=O)Nc4cc(F)cc5cccnc45)cn3)CC2)C1 please.
42.8

Dear colleague, could you send me growth for each of the items below? Thanks.
1. Cn1cc(-c2nnc(N)nc2-c2c[nH]c3ccc(Br)cc23)c2cc(Br)ccc21
2. CC(=O)c1c([Si](C)(C)C)c2cc(C#N)ccn2c1C(=O)c1ccc(Br)cc1
3. CN(C)CCCOc1ccc(C(=C(c2ccccc2)C2CCCC2)c2ccc(OCCCN(C)C)cc2)cc1
4. Cc1c(C(=O)/C=C/c2ccc(Cl)cc2)nnn1-c1ccc2oc(=O)ccc2c1

[112, 87.2, -34.2, 97.7]
